# System: ACHN renal
# Test method notes: NCI tumour cell line growth inhibition, 48 h
Quantity kind: TGI

Example entries and their recorded answers appear below.
> print(dat)
                                   compound  quantity.kind     value
1  Cc1ccc(NC(Nc2ccc(C)cc2C)=C(/C=C(\Cl)[N+](=O)[O-])[N+](=O)[O-])c(C)c1            TGI   8.26 µM
2  COc1cc(C2SCC(=O)N2c2cccc(Cl)c2)cc(OC)c1OC (centres undefined)            TGI  > 100 µM
3  O=C(O)C12C3CCC(CC3)C1(C(=O)O)C1CCC2C1 (centres undefined)            TGI  > 100 µM
4  CC(=O)C1C(=O)C(=O)N(c2cccc([N+](=O)[O-])c2)C1=O (centres undefined)            TGI  > 100 µM
5  Cc1cccc(C)c1NC(=O)/C(=N/NC(N)=S)C(C)C(=O)c1ccc(Cl)cc1 (centres undefined)            TGI  > 100 µM
6                NNC(=O)CS(=O)(=O)Nc1ncccn1            TGI  > 100 µM
7  COc1cc2c(cc1OC)C1C=NC(C2)c2cc(OC)c(OC)cc21 (centres undefined)            TGI  > 100 µM
8  CCOC(=O)C1C(c2ccc3c(c2)OCO3)c2c([nH][nH]c2=O)CC1(C)O (centres undefined)            TGI  > 100 µM

Now look at this one.
IN: State the recorded TGI for this entry: `OCCNCCN1CCN(CCCN2c3ccccc3Sc3ccc(C(F)(F)F)cc32)CC1`
OUT: 43.2 µM
